# Lookup of reported IC50 keyed by entry
Biological target: Histone deacetylase 1 (Homo sapiens, UniProt Q13547)
Sequence (Q13547 whole entry): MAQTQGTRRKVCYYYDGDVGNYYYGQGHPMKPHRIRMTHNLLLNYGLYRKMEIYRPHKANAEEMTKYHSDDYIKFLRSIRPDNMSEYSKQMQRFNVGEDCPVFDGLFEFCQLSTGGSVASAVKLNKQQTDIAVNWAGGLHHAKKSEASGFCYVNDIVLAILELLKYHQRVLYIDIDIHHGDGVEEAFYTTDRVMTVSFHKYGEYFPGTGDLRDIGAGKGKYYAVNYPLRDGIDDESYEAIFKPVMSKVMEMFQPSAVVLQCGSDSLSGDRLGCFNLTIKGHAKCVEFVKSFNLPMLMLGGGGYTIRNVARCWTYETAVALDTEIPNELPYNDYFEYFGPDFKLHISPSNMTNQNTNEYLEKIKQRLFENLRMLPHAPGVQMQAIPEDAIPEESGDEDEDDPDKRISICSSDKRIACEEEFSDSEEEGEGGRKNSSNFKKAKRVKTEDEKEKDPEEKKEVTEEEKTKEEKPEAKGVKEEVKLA
Assay: Inhibition of recombinant human HDAC1 using Boc-Lys(Ac)-AMC as substrate preincubated for 15 mins followed by substrate addition measured after 60 mins by fluorescence-based assay
Give your result in nM as a bare value.

Completed entries (count: 4):
Structure string	IC50 (nM)
O=C(NCCCCCCS)c1ccn[nH]1	526
COc1cc(-c2cc(C(=O)NCCCCCCS)[nH]n2)cc(OC)c1OC	422
O=C(NCCCCCCS)c1cc(-c2cccc3ccccc23)n[nH]1	429
O=C(NCCCCCCS)c1cc(-c2cnccn2)n[nH]1	15

Continue with the molecule presented below.
Reading of IC50 for O=C(NCCCCCCS)c1cc(-c2ccncc2)n[nH]1 with Histone deacetylase 1 (Homo sapiens, UniProt Q13547): 12

---

Target: Histone deacetylase
Assay: Inhibition of HDAC in human HeLa cell nuclear extract using Boc-Lys(Ac)-AMC as substrate preincubated for 15 mins followed by substrate addition measured after 60 mins by fluorescence-based assay
Test readout: IC50 (nM)
Give your result in nM as a bare value.

Completed entries (count: 3):
Structure string	Endpoint result
O=C(NCCCCCCS)c1cc(-c2c[nH]c3ccccc23)n[nH]1	70
O=C(NCCCCCCS)c1cc(-c2ccccc2)n[nH]1	23
O=C(NCCCCCCS)c1cc(-c2ccc(F)cc2)n[nH]1	245

Continue with the compound presented below.
Reported IC50 of O=C(NCCCCCCS)c1cc(-c2ccccn2)n[nH]1 : 33

---

Target: Histone deacetylase 8 (Homo sapiens)
Sequence (Q9BY41 whole entry): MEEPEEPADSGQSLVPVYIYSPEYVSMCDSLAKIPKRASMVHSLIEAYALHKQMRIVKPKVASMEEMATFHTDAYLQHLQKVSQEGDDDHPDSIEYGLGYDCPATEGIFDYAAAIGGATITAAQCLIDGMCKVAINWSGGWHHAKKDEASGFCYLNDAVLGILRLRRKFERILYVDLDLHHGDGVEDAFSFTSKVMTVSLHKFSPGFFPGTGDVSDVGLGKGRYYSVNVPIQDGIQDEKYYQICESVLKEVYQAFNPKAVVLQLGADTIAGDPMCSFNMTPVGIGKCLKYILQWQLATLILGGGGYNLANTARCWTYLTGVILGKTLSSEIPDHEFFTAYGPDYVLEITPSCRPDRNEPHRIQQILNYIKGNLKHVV
Assay: Inhibition of recombinant human HDAC8 using Boc-Lys(TFA)-AMC as substrate preincubated for 15 mins followed by substrate addition measured after 60 mins by fluorescence-based assay
pIC50: −log10 of the molar value.
Test readout: pIC50

Structure string	pIC50
O=C(NCCCCCCS)c1cc(-c2cccnc2)n[nH]1	< 5.00
O=C(NCCCCCCS)c1cc(-c2cnccn2)n[nH]1	< 5.00

Continue with the compound presented below.
Reading of pIC50 for O=C(NCCCCCCS)c1cc(-c2ccncc2)n[nH]1 with Histone deacetylase 8 (Homo sapiens): < 5.00

---

Biological target: Histone deacetylase 2 (Homo sapiens)
Sequence (Q92769 whole entry): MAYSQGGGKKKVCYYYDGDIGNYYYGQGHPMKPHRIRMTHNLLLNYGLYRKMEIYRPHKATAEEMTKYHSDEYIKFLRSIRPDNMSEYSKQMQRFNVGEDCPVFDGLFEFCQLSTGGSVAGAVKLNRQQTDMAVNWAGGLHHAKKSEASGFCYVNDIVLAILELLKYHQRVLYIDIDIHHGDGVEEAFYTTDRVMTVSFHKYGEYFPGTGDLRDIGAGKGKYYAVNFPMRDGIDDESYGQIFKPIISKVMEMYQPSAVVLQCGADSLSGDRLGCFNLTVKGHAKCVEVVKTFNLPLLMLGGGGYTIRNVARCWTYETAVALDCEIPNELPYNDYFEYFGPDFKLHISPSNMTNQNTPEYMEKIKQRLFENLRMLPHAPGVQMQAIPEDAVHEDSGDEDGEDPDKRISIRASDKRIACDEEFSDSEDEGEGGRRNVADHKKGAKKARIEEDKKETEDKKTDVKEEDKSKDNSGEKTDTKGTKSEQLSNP
Assay: Inhibition of recombinant human HDAC2 using Boc-Lys(Ac)-AMC as substrate preincubated for 15 mins followed by substrate addition measured after 60 mins by fluorescence-based assay
Test readout: IC50 (nM)
Give your result in nM as a bare value.

Completed entries (count: 2):
Structure string	IC50 (nM)
O=C(NCCCCCCS)c1cc(-c2cnccn2)n[nH]1	68
O=C(NCCCCCCS)c1cc(-c2ccncc2)n[nH]1	72

Reading of IC50 for O=C(NCCCCCCS)c1cc(-c2cccnc2)n[nH]1 with Histone deacetylase 2 (Homo sapiens): 221

---

System: HT-29
Assay: Growth inhibition of human HT-29 cells after 96 hrs by MTT assay
Type: functional
Conditions: Homo sapiens, HT-29, 96 h
Test readout: GI50

Completed entries (count: 5):
Structure string	System tested	Test readout	Endpoint result
O=C(NCCCCCCSSCCCCCCNC(=O)c1cc(-c2cccnc2)n[nH]1)c1cc(-c2cccnc2)n[nH]1	HT-29	GI50	5.29 µM
C=CCOC(=O)SCCCCCCNC(=O)c1cc(-c2ccncc2)n[nH]1	HT-29	GI50	11.9 µM
CC(C)C(=O)SCCCCCCNC(=O)c1cc(-c2ccncc2)n[nH]1	HT-29	GI50	25.7 µM
CSCCCCCCNC(=O)c1cc(-c2ccncc2)n[nH]1	HT-29	GI50	> 50 µM
O=C(NCCCCCCS)c1cc(-c2ccncc2)n[nH]1	HT-29	GI50	10.2 µM

Continue with the molecule presented below.
Reading of GI50 for O=C(OCc1ccccc1)SCCCCCCNC(=O)c1cc(-c2ccncc2)n[nH]1 with HT-29: 22 µM

---

Tested on: HT-29
Test: Growth inhibition of human HT-29 cells after 96 hrs by MTT assay
Type: functional
Conditions: Homo sapiens, HT-29, 96 h
Could you mark each record criterion met if its GI50 falls strictly under 10 µM, and criterion not met if it equals or exceeds it?

Structure string	Discrete label
CCC(=O)SCCCCCCNC(=O)c1cc(-c2ccncc2)n[nH]1	criterion not met

Query: Strictly below 10 µM in GI50? CCCC(=O)SCCCCCCNC(=O)c1cc(-c2ccncc2)n[nH]1
Reply: criterion not met

Query: Strictly below 10 µM in GI50? O=C(NCCCCCCSSCCCCCCNC(=O)c1cc(-c2ccncc2)n[nH]1)c1cc(-c2ccncc2)n[nH]1
Reply: criterion met

Query: Strictly below 10 µM in GI50? CC(=O)SCCCCCCNC(=O)c1cc(-c2ccncc2)n[nH]1
Reply: criterion not met

Query: Strictly below 10 µM in GI50? CCCCCCCC/C=C\CCCCCCCC(=O)SCCCCCCNC(=O)c1cc(-c2ccncc2)n[nH]1
Reply: criterion not met

Query: Strictly below 10 µM in GI50? O=C(NCCCCCCS)c1cc(-c2cccnc2)n[nH]1
Reply: criterion not met

---

Target: Protein deacetylase HDAC6 (Homo sapiens)
Assay: Inhibition of HDAC6 in human HCT116 cells assessed as increase in acetylated tubulin level after 24 hrs by Western blot analysis
Type: cell-based
Settings: HCT-116

Structure string	inhibition
O=C(NCCCCCCSSCCCCCCNC(=O)c1cc(-c2cccnc2)n[nH]1)c1cc(-c2cccnc2)n[nH]1	Dose-dependent effect
O=C(NCCCCCCS)c1cc(-c2ccncc2)n[nH]1	Dose-dependent effect
O=C(NCCCCCCSSCCCCCCNC(=O)c1cc(-c2ccncc2)n[nH]1)c1cc(-c2ccncc2)n[nH]1	Dose-dependent effect
O=C(NCCCCCCS)c1cc(-c2cccnc2)n[nH]1	Dose-dependent effect

---

# Lookup of reported log10(IC50) keyed by entry
Target: Histone deacetylase
Test: Inhibition of HDAC in human HeLa cell nuclear extract using Boc-Lys(Ac)-AMC as substrate preincubated for 15 mins followed by substrate addition measured after 60 mins by fluorescence-based assay
A value of 2 here means IC50 of 100 in nM, since values are log10.

Completed entries (count: 4):
Structure string	log10(IC50)
COc1ccc(-c2cc(C(=O)NCCCCCCS)[nH]n2)cc1	2.18
Cc1cc(C(=O)NCCCCCCS)[nH]n1	2.85
O=C(NCCCCCCS)c1cc(-c2cnccn2)n[nH]1	1.26
COc1cc(-c2cc(C(=O)NCCCCCCS)[nH]n2)cc(OC)c1OC	2.01

Reported log10(IC50) of COc1ccc(-c2cc(C(=O)NCCCCCCS)[nH]n2)cc1OC : 1.75

Reported log10(IC50) of O=C(NCCCCCCS)c1cc(C2CCCCC2)n[nH]1 : 2.56

---

# Lookup of reported GI50 at 96 h keyed by entry
Assay: Cytotoxicity against HEK293 cells assessed as growth inhibition after 96 hrs by MTT assay
Conditions: human

Completed entries (count: 3):
Structure string	GI50 at 96 h
CC(C)C(=O)SCCCCCCNC(=O)c1cc(-c2ccncc2)n[nH]1	> 50 µM
CC(=O)SCCCCCCNC(=O)c1cc(-c2ccncc2)n[nH]1	> 50 µM
CCCC(=O)SCCCCCCNC(=O)c1cc(-c2ccncc2)n[nH]1	> 50 µM

Reported GI50 at 96 h of O=C(NCCCCCCS)c1cc(-c2cccnc2)n[nH]1 : > 50 µM

Reported GI50 at 96 h of C=CCOC(=O)SCCCCCCNC(=O)c1cc(-c2ccncc2)n[nH]1 : 27.5 µM

Reported GI50 at 96 h of CCC(=O)SCCCCCCNC(=O)c1cc(-c2ccncc2)n[nH]1 : > 50 µM

---

Target: Protein deacetylase HDAC6 (Homo sapiens, UniProt Q9UBN7)
Sequence (Q9UBN7 whole entry): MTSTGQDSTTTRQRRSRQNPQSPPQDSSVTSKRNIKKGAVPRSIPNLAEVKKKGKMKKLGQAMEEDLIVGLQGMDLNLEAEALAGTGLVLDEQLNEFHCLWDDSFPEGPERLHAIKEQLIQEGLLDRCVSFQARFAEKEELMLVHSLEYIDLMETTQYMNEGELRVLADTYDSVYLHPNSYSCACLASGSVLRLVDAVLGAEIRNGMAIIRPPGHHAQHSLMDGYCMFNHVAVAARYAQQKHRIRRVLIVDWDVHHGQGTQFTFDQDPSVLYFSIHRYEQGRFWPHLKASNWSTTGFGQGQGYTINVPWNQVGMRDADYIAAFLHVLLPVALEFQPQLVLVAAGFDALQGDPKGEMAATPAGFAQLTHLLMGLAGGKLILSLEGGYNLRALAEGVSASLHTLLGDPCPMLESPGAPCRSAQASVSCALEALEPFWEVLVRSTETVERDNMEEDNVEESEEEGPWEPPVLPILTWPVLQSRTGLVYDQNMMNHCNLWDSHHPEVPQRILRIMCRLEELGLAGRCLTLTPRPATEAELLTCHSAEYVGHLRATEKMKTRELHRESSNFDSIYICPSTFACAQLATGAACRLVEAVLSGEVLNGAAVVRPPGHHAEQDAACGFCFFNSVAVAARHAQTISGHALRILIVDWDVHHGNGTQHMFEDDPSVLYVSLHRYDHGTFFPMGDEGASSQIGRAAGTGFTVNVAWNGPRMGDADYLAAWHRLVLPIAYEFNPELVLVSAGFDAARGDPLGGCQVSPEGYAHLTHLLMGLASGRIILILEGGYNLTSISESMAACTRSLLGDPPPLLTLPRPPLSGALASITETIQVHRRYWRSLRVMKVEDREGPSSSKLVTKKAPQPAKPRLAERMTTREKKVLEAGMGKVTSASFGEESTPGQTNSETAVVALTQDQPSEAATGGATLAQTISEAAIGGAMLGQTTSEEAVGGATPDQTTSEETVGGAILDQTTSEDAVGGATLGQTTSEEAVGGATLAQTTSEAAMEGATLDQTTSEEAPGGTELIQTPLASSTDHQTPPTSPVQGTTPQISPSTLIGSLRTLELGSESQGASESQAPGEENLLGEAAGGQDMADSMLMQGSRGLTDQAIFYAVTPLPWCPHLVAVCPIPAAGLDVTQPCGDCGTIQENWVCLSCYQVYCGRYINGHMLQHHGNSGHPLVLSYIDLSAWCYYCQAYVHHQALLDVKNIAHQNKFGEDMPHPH
Assay: Inhibition of recombinant human HDAC6 using Boc-Lys(Ac)-AMC as substrate preincubated for 15 mins followed by substrate addition measured after 60 mins by fluorescence-based assay
Test readout: pIC50
Formally, pIC50 is defined as -log10 of the concentration c, with c in mol/L.

Completed entries (count: 5):
Structure string	System tested	Endpoint result
O=C(NCCCCCCS)c1cc(-c2ccc(-c3ccccc3)cc2)n[nH]1	Protein deacetylase HDAC6 (Homo sapiens, UniProt Q9UBN7)	6.97
COc1ccc(-c2cc(C(=O)NCCCCCCS)[nH]n2)cc1	Protein deacetylase HDAC6 (Homo sapiens, UniProt Q9UBN7)	6.78
O=C(NCCCCCCS)c1cc(-c2ccncc2)n[nH]1	Protein deacetylase HDAC6 (Homo sapiens, UniProt Q9UBN7)	7.74
O=C(NCCCCCCS)c1cc(-c2cccc3ccccc23)n[nH]1	Protein deacetylase HDAC6 (Homo sapiens, UniProt Q9UBN7)	6.61
O=C(NCCCCCCS)c1ccn[nH]1	Protein deacetylase HDAC6 (Homo sapiens, UniProt Q9UBN7)	7.04

Reported pIC50 of O=C(NCCCCCCS)c1cc(-c2ccc3ccccc3c2)n[nH]1 : 6.63

Reported pIC50 of COc1cc(-c2cc(C(=O)NCCCCCCS)[nH]n2)cc(OC)c1OC : 7.08

Reported pIC50 of O=C(NCCCCCCS)c1cc(-c2ccccn2)n[nH]1 : 7.57

Reported pIC50 of O=C(NCCCCCCS)c1cc(-c2cccnc2)n[nH]1 : 7.59

Reported pIC50 of COc1ccc(-c2cc(C(=O)NCCCCCCS)[nH]n2)cc1OC : 7.25

Reported pIC50 of O=C(NCCCCCCS)c1cc(-c2ccccc2)n[nH]1 : 7.52

Reported pIC50 of O=C(NCCCCCCS)c1cc(-c2c[nH]c3ccccc23)n[nH]1 : 7.48

Reported pIC50 of O=C(NCCCCCCS)c1cc(C2CCCCC2)n[nH]1 : 6.62

Reported pIC50 of O=C(NCCCCCCS)c1cc(-c2cnccn2)n[nH]1 : 7.66
